- assay comment: in vitro
- condition notes: human, hela cells, % viability
recorded endpoint: viability at 28.5 h, 10 µM (%)
Write the value in % as a bare number.

INSERT INTO measurements (compound, measured) VALUES
  ('c1coc(-c2cc(NC3CCCCC3)ncn2)c1 [CBK090901]', 91.2);

// Input: O=C(N[C@H]1C[C@@H]2C(=O)N[C@H]3CCN(C(=O)Cc4cccs4)[C@@H]3C(=O)N2C1)C1CCC1 [CBK289269] . Output its viability at 28.5 h, 10 µM only. 117

Output measured viability at 28.5 h, 10 µM for this item: CCC1CCCCN1C(=O)c1ccc(C(=O)NC)cc1 (stereo not drawn) [CBK083371] 95.6

Give the reported viability at 28.5 h, 10 µM for this compound. CCn1nc(C)c(CNC(=O)N(Cc2ccccn2)CC(C)C)c1C [CBK304193] 92.1

Find the measured viability at 28.5 h, 10 µM of C=CCNC(=O)Cn1c(-c2ccco2)cc2cccnc21 [CBK282719] and report it. 82.6

Answer with reported viability at 28.5 h, 10 µM of COc1ccc(CC(=O)N2CCCC(c3nccnc3-c3cccc(C)c3)C2)cc1 (stereo not drawn) [CBK286137] 94.1

Name the recorded viability at 28.5 h, 10 µM of the compound listed here: C[C@]12CN(CCc3ccccc3)C[C@H]1NC(=O)c1ccccc1C2=O [CBK284704] 90.3

Hello, please tell me recorded viability at 28.5 h, 10 µM for this one: Cn1nc2c(cc1=O)CN(C(=O)c1ccoc1)CC2 [CBK304330] 119

Kindly indicate its recorded viability at 28.5 h, 10 µM. Item: O=C(CNC(=O)c1ccccc1)OCC(=O)c1ccc(Cl)c(Cl)c1 [CBK261611] 93.9

Give me measured viability at 28.5 h, 10 µM, please, for this compound: CCNc1ccn([C@H]2C[C@@H](O)[C@@H](CO)O2)c(=O)n1 [CBK201311] 95.2
